# Test system: Leishmania donovani
# MEASUREMENT_NOTES: Antileishmanial activity against wild type Leishmania donovani HU3 promastigotes […] assessed as inhibition of parasite growth incubated for 72 hrs by automatic microtiter plate reader analysis
# Type: functional, organism-based
pIC50: −log10 of the molar value.
REPORTED_ENDPOINT: pIC50

Record excerpt, results attached:
[[record]]
compound = "CSc1ccc(NC(=O)c2ncc([N+](=O)[O-])n2C)cc1"
readout_value = "< 4.70"

[[record]]
compound = "CSc1ccc(OCc2ncc(C#N)n2C)cc1"
readout_value = "< 4.70"

[[record]]
compound = "Cn1c([N+](=O)[O-])cnc1CCc1ccc(S(C)(=N)=O)cc1 (stereo not given)"
readout_value = "< 4.70"

[[record]]
compound = "CSc1ccc(Cn2ccn3cc([N+](=O)[O-])nc3c2=O)cc1"
readout_value = "< 4.78"

[[record]]
compound = "CSc1ccc(CCc2ncc([N+](=O)[O-])n2CCO)cc1"
readout_value = "< 4.70"

[[record]]
compound = "CSc1ccc(OCc2nccn2C)cc1"
readout_value = "< 4.70"

[[record]]
compound = "C[S+]([O-])c1ccc(C(=O)Nc2ccc3c(c2)B(O)OC3(C)C)cc1 (stereo not given)"
readout_value = "< 4.77"

[[record]]
compound = "C[S+]([O-])c1ccc(OCC2Cn3cc([N+](=O)[O-])nc3O2)cc1 (racemic)"
readout_value = 4.99


Give one value of pIC50 per listed compound.
1. CSc1ccc(NCc2ncc([N+](=O)[O-])n2C)cc1
2. Cn1c([N+](=O)[O-])cnc1C(=O)N1CCS(=O)(=O)CC1
3. COc1ccc(Cn2ccn3cc([N+](=O)[O-])nc3c2=O)cc1
4. CSc1ccc(OCc2ncc([N+](=O)[O-])n2C)cc1 [FEXINIDAZOLE]
5. Cn1c([N+](=O)[O-])cnc1COc1ccc(S(C)(=N)=O)cc1 (stereo not given)
6. CSc1ccc(OCC2Cn3cc([N+](=O)[O-])nc3O2)cc1 (racemic)

## Result
["< 4.70", 5.12, "< 4.91", 5.48, 4.91, 6.00]

## Task Param readout= pIC50; system= Leishmania donovani; entry= `CSc1ccc(NC(=O)c2ncc([N+](=O)[O-])[nH]2)cc1` ; returns value.
## Result < 4.70
